meta.source: patent US20070298105A1

Assay info: Colonic intubation study: plasma pharmacokinetics of rabeprazole and esomeprazole
Type: in vivo, human
Experimental conditions: male, human, plasma, other: colonic (nasoenteral tube into the transverse colon), 30 mg, 30 mg rabeprazole colonic solution treatment; after start of treatment (colon infusion ended at 20 hr); read-out: median Tmax
Metric: Tmax

molecule COCCCOc1ccnc(C[S+]([O-])c2nc3ccccc3[nH]2)c1C (stereo not shown) , Tmax observed: ~18 h

----------
Assay info: Colonic intubation study: plasma pharmacokinetics of rabeprazole and esomeprazole
Assay type: in vivo, human
Experimental conditions: male, human, plasma, po, 20 mg, TRT C: rabeprazole 20 mg oral tablet; subset N = 14
Metric: AUC(0-t)
Note to self: number, then unit, no commentary.

compound COCCCOc1ccnc(C[S+]([O-])c2nc3ccccc3[nH]2)c1C (stereo not shown) , AUC(0-t) observed: 619 ng·h/mL

----------
Assay info: Colonic intubation study: plasma pharmacokinetics of rabeprazole and esomeprazole
Assay type: in vivo, human
Experimental conditions: male, human, plasma, po, 20 mg, TRT C: rabeprazole 20 mg oral tablet; N = 19
Metric: AUC(0-t) (ng·h/mL)
Please give a number only; it is taken to be in ng·h/mL.

compound COCCCOc1ccnc(C[S+]([O-])c2nc3ccccc3[nH]2)c1C (stereo not shown) [Rabeprazole] , AUC(0-t) observed: 534

----------
Assay info: Colonic intubation study: plasma pharmacokinetics of rabeprazole and esomeprazole
Assay type: in vivo, human
Experimental conditions: male, human, plasma, po, 40 mg, oral administration of 40 mg esomeprazole; read-out: median half-life (converted)
Metric: half-life

compound COc1ccc2nc([S@@+]([O-])Cc3ncc(C)c(OC)c3C)[nH]c2c1 [Esomeprazole] , half-life observed: ~1 h

----------
Assay info: Colonic intubation study: plasma pharmacokinetics of rabeprazole and esomeprazole
Type: in vivo, human
Experimental conditions: male, human, plasma, other: colonic (nasoenteral tube into the transverse colon), 30 mg, TRT A: rabeprazole 30 mg solution in the colon over 20 hours; N = 19
Metric: AUC(0-t) (ng·h/mL)
Please give a number only; it is taken to be in ng·h/mL.

compound COCCCOc1ccnc(C[S+]([O-])c2nc3ccccc3[nH]2)c1C (stereo not shown) , AUC(0-t) observed: 287
